These data points were gathered from patent US10144715B2.

- Measurement target: Gal4 DNA binding domain fused to the LBD of LXRβ in HEK293 cells (Homo sapiens (Human), UniProt P55055)
- Sequence (P55055 222-460 limits assumed): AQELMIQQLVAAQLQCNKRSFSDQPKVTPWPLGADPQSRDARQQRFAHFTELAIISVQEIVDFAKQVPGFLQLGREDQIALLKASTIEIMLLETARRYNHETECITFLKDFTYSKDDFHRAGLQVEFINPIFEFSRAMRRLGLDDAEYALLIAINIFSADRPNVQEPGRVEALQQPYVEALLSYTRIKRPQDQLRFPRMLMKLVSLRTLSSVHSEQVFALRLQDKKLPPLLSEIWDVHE
- Assay details: cell-based
- Assay type: cell-based
- Measurement context: antagonist mode, 200 nM T0901317, HEK293 reporter gene assay; read-out: Cell LXRβ IC50
Measured parameter: log10 IC50 (log10 of the value in nM)
Recall that a logarithmic scale is used here: each number is log10 of IC50 in nM.

Compound: CS(=O)(=O)c1cc(N2CCN(C[C@H]3CC[C@@H](C(F)(F)F)CC3)[C@@H](c3ccccc3)C2)ccc1C(N)=O (single isomer, unassigned)
log10 IC50: 3.42
//
Compound: CS(=O)(=O)c1cccc(N2CCN(C[C@H]3C[C@@H]4[C@H](C3)C4(F)F)[C@@H](c3ccccc3)C2)c1
log10 IC50: 2.46
//
Compound: CS(=O)(=O)c1cccc(N2CCN(C[C@H]3CC[C@@](C)(O)CC3)[C@@H](c3ccccc3)C2)c1 (single isomer, unassigned)
log10 IC50: 2.07
//
Compound: CS(=O)(=O)c1cccc(N2CCN(C[C@H]3CC[C@H](C(F)(F)F)CC3)[C@@H](c3ccccc3)C2)c1 (single isomer, unassigned)
log10 IC50: 2.77
//
Compound: NS(=O)(=O)c1cccc(N2CCN(C[C@H]3CC[C@@H](C(F)(F)F)CC3)[C@@H](c3ccccc3)C2)c1 (single isomer, unassigned)
log10 IC50: 2.50

Now, please, on to the next compound.
IN: Query: log10 IC50; subject: CS(=O)(=O)c1cccc(N2CCN(C[C@H]3CC[C@@H](C(F)(F)F)CC3)[C@@H](c3ccccc3)C2)c1 (single isomer, unassigned)
OUT: 2.64

----------
- Measurement target: Gal4 DNA binding domain fused to the LBD of LXRα in HEK293 cells (Homo sapiens (Human), UniProt Q13133)
- Sequence (Q13133 209-447): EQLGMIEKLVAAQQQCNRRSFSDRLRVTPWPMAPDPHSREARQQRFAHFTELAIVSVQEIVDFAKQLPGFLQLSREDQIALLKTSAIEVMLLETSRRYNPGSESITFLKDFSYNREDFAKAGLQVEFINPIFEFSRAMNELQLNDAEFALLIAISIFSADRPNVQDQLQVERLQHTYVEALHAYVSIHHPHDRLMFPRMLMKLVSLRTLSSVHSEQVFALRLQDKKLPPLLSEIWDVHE
- Assay details: LXR luciferase transcriptional reporter gene assay, agonist mode, LXRα
- Format: cell-based
- Measurement context: agonist mode; read-out: Cell LXRα EC50
Measured parameter: pEC50
// pEC50: -log10(molar conc.)

IN: Query: pEC50; subject: `CNC(=O)c1cnc(N2CCN(c3ccc(F)c(S(C)(=O)=O)c3)C[C@H]2C(C)C)nc1C(F)(F)F`
OUT: 5.26

IN: Query: pEC50; subject: CS(=O)(=O)c1cc(N2CCN(Cc3ccc(C(F)(F)F)c(Cl)c3)C(c3ccccc3)C2)ccc1CO (stereo not shown)
OUT: 6.04

IN: Query: pEC50; subject: `COC(=O)c1cnc(N2CCN(c3cccc(S(C)(=O)=O)c3)C[C@H]2C(C)C)nc1`
OUT: 5.45

IN: Query: pEC50; subject: `CC(C)[C@@H]1CN(c2cccc(S(C)(=O)=O)c2)CCN1c1ncc(Br)cn1`
OUT: 5.89

----------
- Measurement target: Gal4 DNA binding domain fused to the LBD of LXRβ in HEK293 cells (Homo sapiens (Human))
- Assay details: cell-based
pEC50: −log10 of the molar value.
Entries and their pEC50 values follow.

Guide cases for pEC50, answers given:
Compound: COCCNC(=O)c1cnc(N2CCN(c3ccc(F)c(S(C)(=O)=O)c3)C[C@H]2C(C)C)nc1C(F)(F)F [17-6]
pEC50: < 4.70
--
Compound: CC(C)[C@H]1CN(c2ccc(CO)c(S(C)(=O)=O)c2)CCN1C[C@@H]1CC[C@@H](C(F)(F)F)OC1 [Cpd No 49-3]
pEC50: 7.24
--
Compound: CON(C)C(=O)c1cnc(N2CCN(c3ccc(F)c(S(C)(=O)=O)c3)C[C@H]2c2ccc(F)cc2)nc1C(F)(F)F [17-32]
pEC50: < 4.70

IN: Query: pEC50; subject: NS(=O)(=O)c1cccc(N2CCN(CC3CCN(CC(F)(F)F)CC3)[C@H](c3ccccc3)C2)c1 (single isomer, unassigned) [48-82]
OUT: < 4.70
